Where do these numbers come from? They come from patent US20230014722A1.

# experimental target: T1, human PD-1 on transfected cells (human, UniProt Q15116 25-288)
# T1 construct: also called CHO-S cells expressing human PD-1; human PD-1 transfected CHO-S cells
# T1 sequence (Q15116 25-288 limits assumed): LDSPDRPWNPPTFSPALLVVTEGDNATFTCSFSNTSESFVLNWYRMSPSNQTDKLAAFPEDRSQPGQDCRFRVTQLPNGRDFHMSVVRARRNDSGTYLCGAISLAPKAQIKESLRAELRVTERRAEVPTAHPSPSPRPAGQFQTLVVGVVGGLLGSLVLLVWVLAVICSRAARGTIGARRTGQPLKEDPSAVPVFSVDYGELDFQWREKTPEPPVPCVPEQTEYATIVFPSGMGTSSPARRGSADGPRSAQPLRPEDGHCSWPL
# measurement protocol: FACS, human PD-1 transfected CHO-S cells
Reported values of pEC50 for individual entries
In textbook form, pEC50 equals minus log to base ten of the concentration in mol/L.

The cases that follow already have their pEC50 on record.
• 2G4 (antibody, human IgG4, V domains shown) VH: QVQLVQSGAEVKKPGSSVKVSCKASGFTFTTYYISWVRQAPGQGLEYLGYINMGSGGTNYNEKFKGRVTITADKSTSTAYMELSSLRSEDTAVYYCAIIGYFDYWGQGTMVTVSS VL: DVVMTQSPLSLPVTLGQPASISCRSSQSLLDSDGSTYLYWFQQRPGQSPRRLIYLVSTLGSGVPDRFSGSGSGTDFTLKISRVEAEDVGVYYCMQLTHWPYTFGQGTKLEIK = 8.56
• 2E5 (antibody, human IgG4, V domains shown) VH: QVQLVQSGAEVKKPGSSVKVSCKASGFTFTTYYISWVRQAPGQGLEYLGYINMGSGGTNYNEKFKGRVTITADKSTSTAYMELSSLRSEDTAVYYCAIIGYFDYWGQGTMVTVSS VL: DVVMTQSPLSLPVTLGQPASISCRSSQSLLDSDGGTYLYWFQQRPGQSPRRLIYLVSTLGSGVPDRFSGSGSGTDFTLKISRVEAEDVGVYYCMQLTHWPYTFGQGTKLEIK = 8.66
• 1H6 (antibody, human IgG4, V domains shown) VH: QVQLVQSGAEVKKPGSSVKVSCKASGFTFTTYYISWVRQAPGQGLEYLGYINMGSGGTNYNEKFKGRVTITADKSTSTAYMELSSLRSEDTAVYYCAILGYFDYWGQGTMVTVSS VL: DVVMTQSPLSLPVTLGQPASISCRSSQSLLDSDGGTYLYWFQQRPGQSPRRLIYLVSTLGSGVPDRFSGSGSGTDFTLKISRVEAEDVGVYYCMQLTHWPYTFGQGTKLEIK = 8.58

# input for lookup
Recorded pEC50 for 2C2 (antibody, human IgG4, V domains shown) VH: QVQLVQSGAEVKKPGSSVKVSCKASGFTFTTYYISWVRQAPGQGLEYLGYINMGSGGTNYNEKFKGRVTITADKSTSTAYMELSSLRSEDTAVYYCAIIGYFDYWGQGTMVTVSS VL: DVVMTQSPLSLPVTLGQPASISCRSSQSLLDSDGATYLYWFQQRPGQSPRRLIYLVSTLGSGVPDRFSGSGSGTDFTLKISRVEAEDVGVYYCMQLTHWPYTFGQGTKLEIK , please? 8.63
